Values were extracted from patent US6323185.

Below, each entry is listed alongside its reported IC50.
# tested system: CD4 (UniProt P01730 P01730:26-396)
# experiment summary: competition; ID50, oligo with immobilized CD4
# run parameters: tags: immobilized, gp120 capture ELISA kit

- binder: "GTGGTGGGTGGGTGGGTGGTGGGTGGTGGTTGTGGGTGGGTGGTG (ssDNA, phosphodiester) [I100-07]"
  relation operator: "="
  IC50, µM: 4.25
- binder: "GTGGTGGGTGGGTGGGTGGTGGGTGGTGGTTGTGGGTGGGTGGTG (ssDNA, all PS) [I100-21]"
  relation operator: "="
  IC50, µM: 0.048
- binder: "GATCCATGTCAGTGACAC (ssDNA, phosphodiester, amine) [1231 random]"
  relation operator: ">"
  IC50, µM: 50
